# Tested on: T47D cell line
# assay_info: MTT cytotoxicity assay
# Format: cell-based
# condition: 48h, 50 µM, Repeat No 1
Quick list: cell proliferation per entry.
measured_property: cell proliferation (%)

1. O=C(N/N=C/c1cc(Br)cc(Br)c1O)c1cccc(I)c1 [Compound 21]; 81
2. O=C(N/N=C/c1cc(I)cc(I)c1O)c1ccccc1I [Compound 14]; 81
3. O=C(N/N=C/c1cc(Cl)cc(I)c1O)c1cccc(I)c1 [Compound 20]; 76
4. O=C(N/N=C/c1cc(Cl)cc(I)c1O)c1ccc(I)cc1 [Compound 27]; 81

----------
# Tested on: Candida spp.
# assay_info: Broth microdilution, summary over reference yeasts
# Format: cell-based
# condition: range over the reference Candida spp. strains
Quick list: MFC per entry.
measured_property: MFC

1) O=C(N/N=C/c1cc(Cl)cc(I)c1O)c1ccccc1I; ≥ 1000 µg/mL
2) O=C(N/N=C/c1cc(Cl)cc(I)c1O)c1ccc(I)cc1; 62.5 µg/mL
3) O=C(N/N=C/c1cc(I)cc(I)c1O)c1ccccc1I; ≥ 1000 µg/mL
4) O=C(N/N=C/c1cc(O)ccc1O)c1ccc(I)cc1; > 1000 µg/mL
5) O=C(N/N=C/c1cc(Br)cc(Br)c1O)c1ccc(I)cc1; > 1000 µg/mL
